Test system: Mycobacterium tuberculosis (strain H37RV)
Assay: In-vitro method for testing compounds against M. tuberculosis (resazurin growth inhibition)
Assay type: cell-based
Conditions: 7 days incubation
This listing pairs molecules with measured M. tuberculosis pIC50.

COc1nc2ccc(Br)cc2c(Cl)c1C(c1ccccc1)N(C)CC(=O)N1CCSCC1 (centres unmarked) ... 4.2

stdin: Dear colleague, please send me the reported M. tuberculosis pIC50 for Cc1ccc2nc(-c3ccccc3)c(C(c3ccccc3)N(CC(=O)N3CCc4ccccc4C3)Cc3ccccc3)cc2c1 (centres unmarked) when you can.
stdout: 5.0

stdin: Dear colleague, please send me the reported M. tuberculosis pIC50 for Cc1ccc2nc(-c3ccccc3)c(C(c3ccccc3)N(CC(=O)N3CCSC3)Cc3ccccc3)cc2c1 (centres unmarked) when you can.
stdout: 5.0

stdin: Dear colleague, please send me the reported M. tuberculosis pIC50 for COc1nc2ccc(Br)cc2cc1C(c1ccccc1)N(C)CC(=O)N1CCSCC1 (centres unmarked) when you can.
stdout: 4.05

stdin: Dear colleague, please send me the reported M. tuberculosis pIC50 for Cc1ccc2nc(-c3ccccc3)c(C(c3ccccc3)N(CC(=O)N3CCC(C)CC3)Cc3ccccc3)cc2c1 (centres unmarked) when you can.
stdout: 5.7

----------
System: EFA 29212
Assay: Microtitre plate assay, IC90 determination, EFA 29212
Type: cell-based, E. faecalis
Settings: Enterococcus faecalis; 90% inhibitory concentration for bacterial growth; strain EFA 29212; 24 hours at 37° C.; read-out: IC90 (μg/ml) EFA 29212
This listing pairs compounds with measured IC90.
Express your answer in µg/mL, writing the number without its unit.

COc1nc2ccc(Br)cc2cc1C(c1ccccc1F)N(CCN(C)C)Cc1ccccc1 (centres unmarked) ... 10.4
Cc1ccc2nc(-c3ccccc3)c(C(c3ccccc3)N(CC(=O)N3CCSCC3)Cc3ccccc3)cc2c1 (centres unmarked) ... 14
COc1nc2ccc(Br)cc2cc1C(c1ccccc1)N(CC(=O)N1CCN(C)CC1)Cc1cccc2ncccc12 (centres unmarked) ... 12.5

stdin: Write down the reported IC90 (system: EFA 29212) of CN(C)CCN(Cc1ccccc1)C(c1ccccc1)c1cc2cc(Br)ccc2nc1-c1ccccc1 (centres unmarked)
stdout: 13.8

stdin: Write down the reported IC90 (system: EFA 29212) of COc1cccc(CN(CCN(C)C)C(c2ccccc2)c2cc3cc(Br)ccc3nc2OC)c1 (centres unmarked)
stdout: 15.7

----------
System: STA 29213
Assay: Microtitre plate assay, IC90 determination, STA 29213
Assay type: cell-based, S. aureus
Details: 90% inhibitory concentration for bacterial growth; strain STA 29213; 24 hours at 37° C.
Protocol: Stocks (0.5 ml/tube) were stored at -70° C. until use. Bacteria titrations were performed in microtiter plates to detect the TCID50, in which the TCID50 represents the dilution that gives rise to bacterial growth in 50% of inoculated cultures. […] At the end of incubation, one day after inoculation, the bacterial growth was quantitated fluorometrically. […] The % growth inhibition achieved by the compounds was calculated according to standard methods. […]
quantity measured: IC90 (μg/ml) STA 29213 (µg/mL)
Express your answer in µg/mL, writing the number without its unit.

Example compounds with recorded IC90 (μg/ml) STA 29213:
CC(C)N(C)C(=O)CN(Cc1ccccc1)C(c1cccnc1)c1cc2ccccc2nc1-c1ccccc1 (stereo not shown) ... 51.5
COc1nc2ccc(Br)cc2cc1C(c1ccccc1)N(CCN(C)C)Cc1ccccc1 (stereo not shown) ... 10.1
COc1nc2ccc(Br)cc2cc1C(c1ccccc1)N(CC(=O)N1CCOCC1)Cc1ccccc1 (stereo not shown) ... 14.1

stdin: Dear colleague, please send me the reported IC90 (μg/ml) STA 29213 for CCN(CC)C(=O)CN(C)C(c1ccccc1)c1cc2cc(Br)ccc2nc1OC (stereo not shown) when you can.
stdout: 11.8
